System: Pseudomonas aeruginosa
Type: cell-based
Residues, ends and D or L forms follow the SMILES beside them.
Exercise: for every item that follows, state its recorded MIC P. aeruginosa.
Numbers only, in µg/mL.

[
  {
    "compound": "CC[C@H](C)[C@H](NC(=O)[C@H](C)NC(=O)[C@H](CC(C)C)NC(=O)[C@H](Cc1ccc(O)cc1)NC(=O)[C@H](CC(C)C)NC(=O)[C@H](C)N)C(=O)N[C@@H](CCCNC(=N)N)C(=O)N[C@@H](CCCCN)C(=O)N[C@@H](CCCNC(=N)N)C(N)=O [present peptide (4), Ala-Leu-Tyr-Leu-Ala-Ile-Arg-Lys-Arg-NH2]",
    "endpoint-name": "MIC P. aeruginosa",
    "value-observed": 4
  }
]

Now look at this one.
Any idea what MIC P. aeruginosa was measured for CC[C@H](C)[C@H](NC(=O)[C@H](C)NC(=O)[C@H](CC(C)C)NC(=O)[C@H](Cc1c[nH]c2ccccc12)NC(=O)[C@H](CC(C)C)NC(=O)[C@H](C)N)C(=O)N[C@@H](CCCNC(=N)N)C(=O)N[C@@H](CCCCN)C(=O)N[C@@H](CCCNC(=N)N)C(N)=O [present peptide (5), Ala-Leu-Trp-Leu-Ala-Ile-Arg-Lys-Arg-NH2] (H-ALWLAIRKR-NH2; N-terminus assumed) ?
10

Data origin, for the record: patent US6476189B1
